Where do these numbers come from? They come from ChEMBL document CHEMBL5665443.

System Name: Endonuclease 8-like 2 (Homo sapiens);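 note: fluorescence at 594 nm reports NEIL2 cutting and release of a quenched double-stranded DNA oligo substrate, reduced signal read as inhibition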
Sequence (whole entry): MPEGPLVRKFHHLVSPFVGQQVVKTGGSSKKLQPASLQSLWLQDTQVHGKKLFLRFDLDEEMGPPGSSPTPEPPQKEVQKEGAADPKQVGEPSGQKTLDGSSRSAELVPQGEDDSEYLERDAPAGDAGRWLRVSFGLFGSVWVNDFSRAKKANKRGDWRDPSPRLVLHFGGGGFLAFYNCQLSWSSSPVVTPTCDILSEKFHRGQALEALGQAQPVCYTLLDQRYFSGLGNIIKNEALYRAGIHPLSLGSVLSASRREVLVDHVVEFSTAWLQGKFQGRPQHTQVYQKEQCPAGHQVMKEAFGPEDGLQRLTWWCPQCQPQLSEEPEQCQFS
Stated Conditions: Compound Concentration 10.0 uM, Hit No
Description: Inhibition of NEIL2 by quantifying inhibition of NEIL2-mediated cleavage and dissociation of quenched duplex DNA oligonucleotides, measured as fluorescence at 594 nm.
Measured inhibition accompanies every entry in the list below.
Hi! Could you send only the number? It should be in %, unit omitted.

Some compounds with known inhibition results, for comparison:
> print(dat)
                                   compound  unit.name  number
1              CCCN(CCC)CCc1cccc2c1CC(=O)N2          %    1.01
2  O=C(O)c1cc(F)c2nc(N3[C@@H]4CC[C@H]3C[C@@H](OCc3c(-c5ccccc5OC(F)(F)F)noc3C3CC3)C4)sc2c1          %   -1.76
3  Cc1c(P(=S)(c2ccccc2)c2ccccc2)n2ccccc2[n+]1C/C=C/c1ccccc1          %   -6.97
4  CCC1(C2=NCCN2)Cc2ccccc2O1 (centres undefined)          %   -5.22
5  COc1cc(-c2cn([C@H]3CCc4c(F)cccc4N(CC(F)(F)F)C3=O)nn2)ccc1-n1cnc(C)c1          %    11.2

Record COc1ccccc1Nc1nc(-c2nn(Cc3c(F)cc(OCCCO)cc3F)c3ccccc23)ncc1OC . Reported inhibition: 3.85

Record O=C(Nc1nc2cccc(-c3ccc(CN4CCS(=O)(=O)CC4)cc3)n2n1)C1CC1 . Reported inhibition: -1.92

Record CCCCc1oc2ccccc2c1C(=O)c1cc(I)c(OCCN(CC)CC)c(I)c1 . Reported inhibition: -6.36

---

System Name: G/T mismatch-specific thymine DNA glycosylase (Homo sapiens);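 note: human TDG cleavage of quenched duplex DNA oligonucleotides coupled to APE1, strand release read as fluorescence at 594 nm, inhibition of TDG activity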
Stated Conditions: Compound Concentration 10.0 uM, Hit No
Description: Inhibition of TDG by quantifying inhibition of TDG-mediated cleavage and dissociation of quenched duplex DNA oligonucleotides, measured as fluorescence at 594 nm. To generate a functional strand incision and increase turn-over this assay is coupled to APE1.
Consider the reported inhibition of an entry and match it to a band in A (below 10%), B (10% to below 40%), C (40% or more)

Please review the following examples before continuing.
> print(dat)
                                   compound  cat
1        Cc1ccc2nc(CNCCCOc3ccccc3)cc(O)c2c1    B
2  O=C(O)c1ccc2cc(-c3ccc(O)c(C45CC6CC(CC(C6)C4)C5)c3)ccc2c1    C
3  COc1cc2nc(N3CCN(C(=O)C4CCCO4)CC3)nc(N)c2cc1OC (stereo not given)    B
4  Cc1ccc(Cn2nc(C(=O)N[C@@H]3C(C)(C)[C@@H]4CC[C@@]3(C)C4)cc2-c2ccc(Cl)c(C)c2)cc1    B
5  CC(=O)Nc1nc(CN2CCC[C@H](Cc3cc(C)nc(C)c3)C2)cs1    C

Which band does CCNC(=O)[C@H]1O[C@@H](n2cnc3c(N)ncnc32)[C@H](O)[C@@H]1O fall in?
A

Which band does CCCCC(=O)N(Cc1ccc(-c2ccccc2C(=O)O)cc1)c1ccccc1 fall in?
B

Which band does Cc1ccc(OCC(O)C(C)NC(C)C)c2c1CCC2 (stereo not given) fall in?
A

Which band does COCc1nc2cnc3cc(-c4c(C)noc4C)c(OC[C@H]4CCNC4)cc3c2n1[C@H](C)c1ccccc1 fall in?
C

Which band does COc1cc(OC)cc(C(=O)NNC(=O)Nc2cccc3ccccc23)c1 fall in?
B
